Hello, the source for this data is ChEMBL document CHEMBL3988442, in case you need it.

target: Ubiquitin-activating enzyme e1, putative (Leishmania donovani (strain BPK282A1)) (UniProt E9BSI1); experiment: Leishmania donovani Ubiquitin Activating Enzyme (LdE1); type: functional; parameters: scale not given: direction of the effect not stated beside the values; conditions: 30 µM
Sequence (E9BSI1 as listed by the source): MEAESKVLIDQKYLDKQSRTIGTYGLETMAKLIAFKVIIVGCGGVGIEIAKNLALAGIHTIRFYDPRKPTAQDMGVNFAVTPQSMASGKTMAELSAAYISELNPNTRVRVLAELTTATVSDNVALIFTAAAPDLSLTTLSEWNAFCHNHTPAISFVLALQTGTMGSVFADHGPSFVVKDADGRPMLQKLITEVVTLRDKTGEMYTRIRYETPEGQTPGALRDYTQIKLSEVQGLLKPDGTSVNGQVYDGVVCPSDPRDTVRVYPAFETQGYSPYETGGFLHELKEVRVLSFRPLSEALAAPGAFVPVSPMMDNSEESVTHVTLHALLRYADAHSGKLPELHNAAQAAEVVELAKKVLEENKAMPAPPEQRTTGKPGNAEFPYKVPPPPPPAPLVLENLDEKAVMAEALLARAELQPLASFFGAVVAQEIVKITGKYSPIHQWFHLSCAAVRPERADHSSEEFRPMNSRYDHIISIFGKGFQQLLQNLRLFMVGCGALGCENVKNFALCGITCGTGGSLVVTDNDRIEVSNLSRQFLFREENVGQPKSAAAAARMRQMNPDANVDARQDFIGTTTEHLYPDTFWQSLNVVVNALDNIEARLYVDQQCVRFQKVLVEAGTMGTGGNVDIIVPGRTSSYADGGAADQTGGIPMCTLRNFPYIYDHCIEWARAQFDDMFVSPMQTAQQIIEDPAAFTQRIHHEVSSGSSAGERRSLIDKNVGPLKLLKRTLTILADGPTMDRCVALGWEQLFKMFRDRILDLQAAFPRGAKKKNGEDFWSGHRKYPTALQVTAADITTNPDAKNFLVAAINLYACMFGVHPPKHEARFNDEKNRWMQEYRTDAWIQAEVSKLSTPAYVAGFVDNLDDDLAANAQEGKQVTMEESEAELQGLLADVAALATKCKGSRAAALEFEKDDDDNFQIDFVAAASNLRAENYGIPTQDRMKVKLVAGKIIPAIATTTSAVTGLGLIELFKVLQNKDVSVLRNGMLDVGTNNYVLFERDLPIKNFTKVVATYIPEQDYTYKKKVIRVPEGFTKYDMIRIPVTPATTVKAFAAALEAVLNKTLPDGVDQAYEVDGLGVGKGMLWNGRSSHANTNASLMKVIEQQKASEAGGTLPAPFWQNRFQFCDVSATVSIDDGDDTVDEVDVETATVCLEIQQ
Potency and affinity values are given separately.
property-label: Percent Effect (%)

INSERT INTO results (compound, property_label, measure_unit, test_result) VALUES
  ('CC(C)Cc1nc(OCC(N)=O)c(C#N)c2c1CCC2', 'Percent Effect', '%', 5.41),
  ('O=C(NCc1ccco1)[C@H]1C[C@@H]2CCN(c3ccncn3)C[C@@H]2O1', 'Percent Effect', '%', 10.7),
  ('CCc1n[nH]c(C2CN(CC(=O)NCCc3ccsc3)CCO2)n1 (stereo unspecified)', 'Percent Effect', '%', 5.48),
  ('COc1ccc(C2=CCN(C(=O)CN(C)CC(N)=O)CC2)cc1', 'Percent Effect', '%', 5.06),
  ('Cc1nc(C)n(CC2CCCN2Cc2nc(C3CC3)no2)n1 (stereo unspecified)', 'Percent Effect', '%', 2.63),
  ('COc1cccc(CN(C)Cc2ccc(C#N)cc2)c1OC', 'Percent Effect', '%', -5.41);
